Hey, just so you know, these numbers are from the supplement of paper PMC7411640.

- Tested on: MDA-MB-468
- TEST NAME: phospho-S6 immunofluorescence (DAPI-normalised), per-plate z-score; higher = higher phospho-S6 signal (less pathway suppression)
- COND: co-treatment: GDC0941 450 nM; 24 h
Where a name gives a salt, the structure may show the parent alone.
// reported phospho-S6 immunofluorescence (z-score) for each item listed

MOLECULE | EXPERIMENTAL TARGET | phospho-S6 immunofluorescence (z-score)
COc1cc(C(=O)NS(=O)(=O)c2ccccc2C)ccc1Cc1cn(C)c2ccc(NC(=O)OC3CCCC3)cc12 [Zafirlukast] (compound 10 µM) | MDA-MB-468 | -2.01
CN(C)CCCN1c2ccccc2Sc2ccc(C(F)(F)F)cc21 [Triflupromazine (hydrochloride)] (compound 10 µM) | MDA-MB-468 | -0.42
O=C1CC2(CCCC2)CC(=O)N1CCCCN1CCN(c2ncccn2)CC1 [Buspirone (hydrochloride)] (compound 10 µM) | MDA-MB-468 | 0.3
Nc1nc(NCCc2ccc(O)cc2)nc2nc(-c3ccco3)nn12 (compound 10 µM) | MDA-MB-468 | -1.88
Clc1cccc(Cl)c1NC1=NCCN1 [Clonidine (hydrochloride)] (compound 10 µM) | MDA-MB-468 | 0.37
CC[C@H](NC(=O)c1c(O)c(-c2ccccc2)nc2ccccc12)c1ccccc1 [Talnetant] (compound 10 µM) | MDA-MB-468 | 0.6
Cc1cc2c(cc1CC(=O)c1sccc1S(=O)(=O)Nc1onc(C)c1Cl)OCO2 [Sitaxsentan (sodium)] (compound 10 µM) | MDA-MB-468 | 0.35
